src = PubChem BioAssay AID2060618

# Tested on: 454973-116-R2-J3-PDC spheroids, percent test/control viability
# PROTOCOL_NOTES: Anticancer human tumor 454973-116-R2-J3-PDC patient-derived pancreatic carcinoma cell line growth inhibition [CLK]
# CONDITION_SUMMARY: second compound 0.1 µM; first compound 1 µM; active compounds read low; spheroids with HUVEC and MSC
Please assign a class to every record based on measured viability, T/C, with ranges group A = under 40%, group B = from 40% up to 90%, group C = 90% and over

Example entries begin here.
• COC1C=CCC(C)C(C)S(=O)(=O)NC(=O)c2ccc3c(c2)N(CC2CCC21)CC1(CCCc2cc(Cl)ccc21)CO3 (stereo not given) + CN1CCN(c2cc(C(=O)Nc3cc4cc(-c5cnn(C)c5)ccc4cn3)ccn2)CC1 = group B
• Nc1ccn(C2OC(CO)C(O)C2(F)F)c(=O)n1 (stereo not given) + CN1CCN(c2cc(C(=O)Nc3cc4cc(-c5cnn(C)c5)ccc4cn3)ccn2)CC1 = group A
• CC(CO)NC(=O)c1cc(-c2ccc(Cl)cc2)nn(-c2cnn(C)c2)c1=O (stereo not given) + CNC(=O)c1ccc(Nc2nc(OC3CCCC3)c3c(-c4ccc5nc(C)oc5c4)c[nH]c3n2)c(OC)c1 = group C
• C=CC(=O)N1CCN(c2nc(=O)n(-c3c(C)ccnc3C(C)C)c3nc(-c4c(O)cccc4F)c(F)cc23)C(C)C1 (stereo not given) + CNC(=O)c1ccc(Nc2nc(OC3CCCC3)c3c(-c4ccc5nc(C)oc5c4)c[nH]c3n2)c(OC)c1 = group C

Task: Just checking, what class would you give CCc1c2c(nc3ccc(O)cc13)-c1cc3c(c(=O)n1C2)COC(=O)[C@]3(O)CC + CNC(=O)c1ccc(Nc2nc(OC3CCCC3)c3c(-c4ccc5nc(C)oc5c4)c[nH]c3n2)c(OC)c1 here?
Result: group A

Task: Just checking, what class would you give CC1(C)CCC(CN2CCN(c3ccc(C(=O)NS(=O)(=O)c4ccc(NCC5CCOCC5)c([N+](=O)[O-])c4)c(Oc4cnc5[nH]ccc5c4)c3)CC2)=C(c2ccc(Cl)cc2)C1 + CNC(=O)c1ccc(Nc2nc(OC3CCCC3)c3c(-c4ccc5nc(C)oc5c4)c[nH]c3n2)c(OC)c1 here?
Result: group C

###

# Tested on: 454973-116-R2-J3-PDC spheroids, percent test/control viability
# PROTOCOL_NOTES: Anticancer human tumor 454973-116-R2-J3-PDC cell line growth inhibition [CLK];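 further: spheroids exposed to compounds for 7 days before readout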
# CONDITION_SUMMARY: second compound 0.0316 µM; first compound 1 µM; active compounds read low; spheroids with HUVEC and MSC
RECORDED_ENDPOINT: viability, T/C (%)
Provide the reading as a plain figure in %.

Task: Would you please give the reported viability, T/C of CC(=O)O[C@H]1C(=O)[C@@]2(C)[C@H]([C@H](OC(=O)c3ccccc3)[C@]3(O)C[C@H](OC(=O)[C@H](O)[C@@H](NC(=O)c4ccccc4)c4ccccc4)C(C)=C1C3(C)C)[C@]1(OC(C)=O)CO[C@@H]1C[C@@H]2O + CNC(=O)c1ccc(Nc2nc(OC3CCCC3)c3c(-c4ccc5nc(C)oc5c4)c[nH]c3n2)c(OC)c1 with 454973-116-R2-J3-PDC spheroids, percent test/control viability?
Result: 8.91

Task: Would you please give the reported viability, T/C of CC1(C)CCC(CN2CCN(c3ccc(C(=O)NS(=O)(=O)c4ccc(NCC5CCOCC5)c([N+](=O)[O-])c4)c(Oc4cnc5[nH]ccc5c4)c3)CC2)=C(c2ccc(Cl)cc2)C1 + CNC(=O)c1ccc(Nc2nc(OC3CCCC3)c3c(-c4ccc5nc(C)oc5c4)c[nH]c3n2)c(OC)c1 with 454973-116-R2-J3-PDC spheroids, percent test/control viability?
Result: 102

Task: Would you please give the reported viability, T/C of O=c1[nH]cc(F)c(=O)[nH]1 + CN1CCN(c2cc(C(=O)Nc3cc4cc(-c5cnn(C)c5)ccc4cn3)ccn2)CC1 with 454973-116-R2-J3-PDC spheroids, percent test/control viability?
Result: 71.3

Task: Would you please give the reported viability, T/C of CC1(C)CCC(CN2CCN(c3ccc(C(=O)NS(=O)(=O)c4ccc(NCC5CCOCC5)c([N+](=O)[O-])c4)c(Oc4cnc5[nH]ccc5c4)c3)CC2)=C(c2ccc(Cl)cc2)C1 + CN1CCN(c2cc(C(=O)Nc3cc4cc(-c5cnn(C)c5)ccc4cn3)ccn2)CC1 with 454973-116-R2-J3-PDC spheroids, percent test/control viability?
Result: 110

Task: Would you please give the reported viability, T/C of COC1C=CCC(C)C(C)S(=O)(=O)NC(=O)c2ccc3c(c2)N(CC2CCC21)CC1(CCCc2cc(Cl)ccc21)CO3 (centres undefined) + CNC(=O)c1ccc(Nc2nc(OC3CCCC3)c3c(-c4ccc5nc(C)oc5c4)c[nH]c3n2)c(OC)c1 with 454973-116-R2-J3-PDC spheroids, percent test/control viability?
Result: 95

Task: Would you please give the reported viability, T/C of COc1ccc([C@@H](O)c2cc(-c3ncnc4cc(N5CCOCC5)ccc34)c(F)cc2Cl)nn1 + CNC(=O)c1ccc(Nc2nc(OC3CCCC3)c3c(-c4ccc5nc(C)oc5c4)c[nH]c3n2)c(OC)c1 with 454973-116-R2-J3-PDC spheroids, percent test/control viability?
Result: 93

Task: Would you please give the reported viability, T/C of CCCS(=O)(=O)Nc1ccc(F)c(C(=O)c2c[nH]c3ncc(-c4ccc(Cl)cc4)cc23)c1F + CN1CCN(c2cc(C(=O)Nc3cc4cc(-c5cnn(C)c5)ccc4cn3)ccn2)CC1 with 454973-116-R2-J3-PDC spheroids, percent test/control viability?
Result: 105

Task: Would you please give the reported viability, T/C of CC1COCCN1c1cc(C2(S(C)(=N)=O)CC2)nc(-c2ccnc3[nH]ccc23)n1 (centres undefined) + CNC(=O)c1ccc(Nc2nc(OC3CCCC3)c3c(-c4ccc5nc(C)oc5c4)c[nH]c3n2)c(OC)c1 with 454973-116-R2-J3-PDC spheroids, percent test/control viability?
Result: 101

Task: Would you please give the reported viability, T/C of CC1COCCN1c1cc(C2(S(C)(=N)=O)CC2)nc(-c2ccnc3[nH]ccc23)n1 (centres undefined) + CN1CCN(c2cc(C(=O)Nc3cc4cc(-c5cnn(C)c5)ccc4cn3)ccn2)CC1 with 454973-116-R2-J3-PDC spheroids, percent test/control viability?
Result: 106
